Taken from ChEMBL document CHEMBL1140384.

Tested Target: P2Y purinoceptor 11 (Homo sapiens) (UniProt Q96G91)
Sequence (Q96G91 whole entry): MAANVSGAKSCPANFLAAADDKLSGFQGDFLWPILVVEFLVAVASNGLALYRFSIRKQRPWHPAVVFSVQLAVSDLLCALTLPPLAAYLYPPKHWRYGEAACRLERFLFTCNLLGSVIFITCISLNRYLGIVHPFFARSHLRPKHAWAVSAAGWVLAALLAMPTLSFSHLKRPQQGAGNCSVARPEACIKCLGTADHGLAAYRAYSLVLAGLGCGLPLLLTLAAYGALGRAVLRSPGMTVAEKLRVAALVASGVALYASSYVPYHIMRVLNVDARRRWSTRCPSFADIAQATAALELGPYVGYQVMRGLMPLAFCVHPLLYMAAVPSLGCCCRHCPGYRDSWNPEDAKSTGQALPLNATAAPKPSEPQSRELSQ
Assay Overview: Relative potency was measured against P2Y purinoceptor 11
Assay type: functional
Threshold-based label: Rel potency under 10 gives Met, Rel potency not under 10 gives Not met.

* CCc1ccc(C(=O)Nc2ccc(S(=O)(=O)O)c3cc(S(=O)(=O)O)cc(S(=O)(=O)O)c23)cc1NC(=O)c1cccc(NC(=O)Nc2cccc(C(=O)Nc3cc(C(=O)Nc4ccc(S(=O)(=O)O)c5cc(S(=O)(=O)O)cc(S(=O)(=O)O)c45)ccc3CC)c2)c1 | Met
* Cc1ccc(C(=O)Nc2ccc(S(=O)(=O)O)c3cc(S(=O)(=O)O)cc(S(=O)(=O)O)c23)cc1NC(=O)Nc1cc(C(=O)Nc2ccc(S(=O)(=O)O)c3cc(S(=O)(=O)O)cc(S(=O)(=O)O)c23)ccc1C | Met
* O=C(Nc1cccc(C(=O)Nc2cc(C(=O)Nc3ccc(S(=O)(=O)O)c4cc(S(=O)(=O)O)cc(S(=O)(=O)O)c34)ccc2F)c1)Nc1cccc(C(=O)Nc2cc(C(=O)Nc3ccc(S(=O)(=O)O)c4cc(S(=O)(=O)O)cc(S(=O)(=O)O)c34)ccc2F)c1 | Not met
* O=C(Nc1cccc(C(=O)Nc2cc(C(=O)Nc3ccc(S(=O)(=O)O)c4cc(S(=O)(=O)O)cc(S(=O)(=O)O)c34)ccc2-c2ccccc2)c1)Nc1cccc(C(=O)Nc2cc(C(=O)Nc3ccc(S(=O)(=O)O)c4cc(S(=O)(=O)O)cc(S(=O)(=O)O)c34)ccc2-c2ccccc2)c1 | Not met
* O=C(Nc1cccc(C(=O)Nc2cc(C(=O)Nc3ccc(S(=O)(=O)O)c4cc(S(=O)(=O)O)cc(S(=O)(=O)O)c34)ccc2Cl)c1)Nc1cccc(C(=O)Nc2cc(C(=O)Nc3ccc(S(=O)(=O)O)c4cc(S(=O)(=O)O)cc(S(=O)(=O)O)c34)ccc2Cl)c1 | Not met
* COCc1ccc(C(=O)Nc2ccc(S(=O)(=O)O)c3cc(S(=O)(=O)O)cc(S(=O)(=O)O)c23)cc1NC(=O)c1cccc(NC(=O)Nc2cccc(C(=O)Nc3cc(C(=O)Nc4ccc(S(=O)(=O)O)c5cc(S(=O)(=O)O)cc(S(=O)(=O)O)c45)ccc3COC)c2)c1 | Met
* Cc1ccc(C(=O)Nc2ccc(S(=O)(=O)O)c3cc(S(=O)(=O)O)cc(S(=O)(=O)O)c23)cc1NC(=O)c1cccc(NC(=O)Nc2cccc(C(=O)Nc3cc(C(=O)Nc4ccc(S(=O)(=O)O)c5cc(S(=O)(=O)O)cc(S(=O)(=O)O)c45)ccc3C)c2)c1 | Not met
* COc1ccc(C(=O)Nc2ccc(S(=O)(=O)O)c3cc(S(=O)(=O)O)cc(S(=O)(=O)O)c23)cc1NC(=O)c1cccc(NC(=O)Nc2cccc(C(=O)Nc3cc(C(=O)Nc4ccc(S(=O)(=O)O)c5cc(S(=O)(=O)O)cc(S(=O)(=O)O)c45)ccc3OC)c2)c1 | Not met

---

Tested Target: P2Y purinoceptor 2 (Homo sapiens)
Sequence (P41231 whole entry): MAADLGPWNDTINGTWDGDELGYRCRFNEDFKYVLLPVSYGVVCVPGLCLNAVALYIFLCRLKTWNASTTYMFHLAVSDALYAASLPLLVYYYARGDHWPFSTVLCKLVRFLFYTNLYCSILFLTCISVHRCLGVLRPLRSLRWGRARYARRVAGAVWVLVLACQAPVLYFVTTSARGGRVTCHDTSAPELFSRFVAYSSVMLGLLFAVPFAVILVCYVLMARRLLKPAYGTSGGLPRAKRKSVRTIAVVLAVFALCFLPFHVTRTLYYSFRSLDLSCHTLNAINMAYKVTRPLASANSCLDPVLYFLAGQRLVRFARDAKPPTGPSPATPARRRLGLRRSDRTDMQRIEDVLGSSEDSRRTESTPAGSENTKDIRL
Assay Overview: Percent inhibition of agonist-induced calcium mobilization at P2Y purinoceptor 2 recombinantly expressed in human HEK293 cells at 100 uM dose
Format: functional, cell-based
Condition Summary: in the assay text read “native in” for “recombinantly expressed in”
Value Type: inhibition (%)

* COCc1ccc(C(=O)Nc2ccc(S(=O)(=O)O)c3cc(S(=O)(=O)O)cc(S(=O)(=O)O)c23)cc1NC(=O)c1cccc(NC(=O)Nc2cccc(C(=O)Nc3cc(C(=O)Nc4ccc(S(=O)(=O)O)c5cc(S(=O)(=O)O)cc(S(=O)(=O)O)c45)ccc3COC)c2)c1 | 44.3
* CC(C)c1ccc(C(=O)Nc2ccc(S(=O)(=O)O)c3cc(S(=O)(=O)O)cc(S(=O)(=O)O)c23)cc1NC(=O)c1cccc(NC(=O)Nc2cccc(C(=O)Nc3cc(C(=O)Nc4ccc(S(=O)(=O)O)c5cc(S(=O)(=O)O)cc(S(=O)(=O)O)c45)ccc3C(C)C)c2)c1 | 31.1
* COc1ccc(C(=O)Nc2ccc(S(=O)(=O)O)c3cc(S(=O)(=O)O)cc(S(=O)(=O)O)c23)cc1NC(=O)c1cccc(NC(=O)Nc2cccc(C(=O)Nc3cc(C(=O)Nc4ccc(S(=O)(=O)O)c5cc(S(=O)(=O)O)cc(S(=O)(=O)O)c45)ccc3OC)c2)c1 | 44.9
* Cc1ccc(C(=O)Nc2ccc(S(=O)(=O)O)c3cc(S(=O)(=O)O)cc(S(=O)(=O)O)c23)cc1NC(=O)c1cccc(NC(=O)Nc2cccc(C(=O)Nc3cc(C(=O)Nc4ccc(S(=O)(=O)O)c5cc(S(=O)(=O)O)cc(S(=O)(=O)O)c45)ccc3C)c2)c1 | 50.5
* O=C(Nc1cccc(C(=O)Nc2cc(C(=O)Nc3ccc(S(=O)(=O)O)c4cc(S(=O)(=O)O)cc(S(=O)(=O)O)c34)ccc2F)c1)Nc1cccc(C(=O)Nc2cc(C(=O)Nc3ccc(S(=O)(=O)O)c4cc(S(=O)(=O)O)cc(S(=O)(=O)O)c34)ccc2F)c1 | 42.8
* O=C(Nc1cccc(C(=O)Nc2cc(C(=O)Nc3ccc(S(=O)(=O)O)c4cc(S(=O)(=O)O)cc(S(=O)(=O)O)c34)ccc2-c2ccccc2)c1)Nc1cccc(C(=O)Nc2cc(C(=O)Nc3ccc(S(=O)(=O)O)c4cc(S(=O)(=O)O)cc(S(=O)(=O)O)c34)ccc2-c2ccccc2)c1 | 73.2
* O=C(Nc1cc(C(=O)Nc2ccc(S(=O)(=O)O)c3cc(S(=O)(=O)O)cc(S(=O)(=O)O)c23)ccc1Cl)Nc1cc(C(=O)Nc2ccc(S(=O)(=O)O)c3cc(S(=O)(=O)O)cc(S(=O)(=O)O)c23)ccc1Cl | 0
* CC(C)c1ccc(C(=O)Nc2ccc(S(=O)(=O)O)c3cc(S(=O)(=O)O)cc(S(=O)(=O)O)c23)cc1NC(=O)Nc1cc(C(=O)Nc2ccc(S(=O)(=O)O)c3cc(S(=O)(=O)O)cc(S(=O)(=O)O)c23)ccc1C(C)C | 14.2
